experiment: Discolouring of compounds on filter paper before and after sun-test illumination; format: physicochemical; set-up: key: 0: No colour; 1: Very faint colour; 2: Light colour; 3: Medium colour; 4: Strong colour; settings: 10 mM in Ethanol:Labrasol:water 65:25:10, 10 ul spot on filter paper dried 15 minutes

{"columns": ["molecule", "Colour score prior to illumination"],
 "data": [
  ["Cc1ccccc1C(=O)c1ccc(N(C(=O)OC(C)OC(=O)c2cccnc2)c2ccc(F)cc2C)cc1Cl (centres unmarked)", 0],
  ["Cc1ccccc1C(=O)c1ccc(N(C(=O)OC(C)OC(=O)CC(C)C)c2ccc(F)cc2C)cc1Cl (centres unmarked)", 0],
  ["CCCC(=O)OCOC(=O)N(c1ccc(C(=O)c2ccccc2C)c(Cl)c1)c1ccc(F)cc1C", 0],
  ["CNc1ccccc1C(=O)c1ccc(Nc2ccccc2N)cc1Cl [Reference c, reference compound]", 1],
  ["CCCC(=O)OC(C)OC(=O)N(c1ccc(C(=O)c2ccccc2C)c(Cl)c1)c1ccc(F)cc1C (centres unmarked)", 0],
  ["Cc1ccccc1C(=O)c1ccc(Nc2ccc(Br)cc2N)cc1Cl [Reference b, reference compound]", 1],
  ["Cc1cc(F)ccc1Nc1ccc(C(=O)c2ccccc2C)c(Cl)c1 [Reference a, reference compound]", 0],
  ["COCC(=O)OC(C)OC(=O)N(c1ccc(C(=O)c2ccccc2C)c(Cl)c1)c1ccc(F)cc1C (centres unmarked)", 0]
]}

* * *

Property: Colour score after illumination; scope: individual molecules
test: Discolouring of compounds on filter paper before and after sun-test illumination; format: physicochemical; parameters: key: 0: No colour; 1: Very faint colour; 2: Light colour; 3: Medium colour; 4: Strong colour; conditions: spots illuminated in sun-test cabinet (Heraeus Suntest CPS), outdoor illumination, 5 minutes
value-kind: Colour score after illumination

{"columns": ["molecule", "test-value"],
 "data": [
  ["COCC(=O)OC(C)OC(=O)N(c1ccc(C(=O)c2ccccc2C)c(Cl)c1)c1ccc(F)cc1C (stereo not shown)", 0],
  ["Cc1ccccc1C(=O)c1ccc(Nc2ccc(Br)cc2N)cc1Cl [Reference b, reference compound]", 3],
  ["Cc1ccccc1C(=O)c1ccc(N(C(=O)OC(C)OC(=O)c2cccnc2)c2ccc(F)cc2C)cc1Cl (stereo not shown)", 0],
  ["CCCC(=O)OC(C)OC(=O)N(c1ccc(C(=O)c2ccccc2C)c(Cl)c1)c1ccc(F)cc1C (stereo not shown)", 0]
]}

* * *

test: Discolouring of compounds on filter paper before and after sun-test illumination; type: physicochemical; design: key: 0: No colour; 1: Very faint colour; 2: Light colour; 3: Medium colour; 4: Strong colour; conditions: spots illuminated in sun-test cabinet (Heraeus Suntest CPS), outdoor illumination, 5 minutes
value-kind: Colour score after illumination

{"columns": ["compound", "value-kind", "test-value"],
 "data": [
  ["CNc1ccccc1C(=O)c1ccc(Nc2ccccc2N)cc1Cl [Reference c, reference compound]", "Colour score after illumination", 3],
  ["Cc1cc(F)ccc1Nc1ccc(C(=O)c2ccccc2C)c(Cl)c1 [Reference a, reference compound]", "Colour score after illumination", 3],
  ["Cc1ccccc1C(=O)c1ccc(N(C(=O)OC(C)OC(=O)CC(C)C)c2ccc(F)cc2C)cc1Cl (stereo not shown) [Compound 133]", "Colour score after illumination", 0],
  ["CCCC(=O)OCOC(=O)N(c1ccc(C(=O)c2ccccc2C)c(Cl)c1)c1ccc(F)cc1C [Compound 113]", "Colour score after illumination", 0]
]}
